Assay: Nalbuphine solubility in different acids (overnight stirring, HPLC)
Type: physicochemical
Settings: DL-malic acid solution, aqueous buffer, thermodynamic from solid, Nalbuphine base Solubility, in DL-Malic acid, approx. 0.5 mmol/mL acid
reported metric: solubility (mM)
All answers are understood in mM, so give the number only.

(Q) Requested read-out: solubility. Entry: Oc1ccc2c3c1O[C@H]1[C@@H](O)CC[C@@]4(O)[C@@H](C2)N(CC2CCC2)CC[C@]314
(A) 630

###

Experiment: Nalbuphine solubility in different acids (overnight stirring, HPLC)
Format: physicochemical
Conditions: tartaric acid solution, aqueous buffer, thermodynamic from solid, Nalbuphine base Solubility, in Tartaric acid, approx. 0.5 mmol/mL acid
reported metric: solubility (mM)
All answers are understood in mM, so give the number only.

(Q) Requested read-out: solubility. Entry: Oc1ccc2c3c1O[C@H]1[C@@H](O)CC[C@@]4(O)[C@@H](C2)N(CC2CCC2)CC[C@]314 [Nalbuphine base]
(A) 930
